# experimental.details: Pharmacokinetic experiment in beagle dogs
# Format: in vivo
# applied.conditions: male, dog, plasma, IV, 1 mg/kg, read-out: Vdss
For each record, write down the corresponding Vd.
Give bare numbers, in L/kg.

N#Cc1ccc2c(c1)COc1cc(C[C@@H](C#N)NC(=O)[C@@H]3CNCCCO3)c(F)cc1-2 [Compound 14] ... 2.29

Here's the next entry for you.
Request: Item Cn1c(=O)oc2ccc(-c3ccc(C[C@@H](C#N)NC(=O)[C@@H]4CNCCCO4)cc3)cc21 [AZD7986, reference compound] : provide Vd
Result: 9.26

====

# study.system: UniProt:P53634
# Sequence (P53634 25-134): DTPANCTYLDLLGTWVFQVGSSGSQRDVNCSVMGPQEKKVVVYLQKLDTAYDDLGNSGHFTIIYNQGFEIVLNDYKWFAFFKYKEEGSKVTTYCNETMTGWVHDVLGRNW
# Sequence (P53634 231-394): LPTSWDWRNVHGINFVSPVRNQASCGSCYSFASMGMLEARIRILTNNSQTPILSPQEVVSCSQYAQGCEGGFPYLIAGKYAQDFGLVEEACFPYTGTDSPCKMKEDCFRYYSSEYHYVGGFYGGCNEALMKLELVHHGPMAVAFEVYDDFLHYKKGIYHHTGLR
# Sequence (P53634 395-463): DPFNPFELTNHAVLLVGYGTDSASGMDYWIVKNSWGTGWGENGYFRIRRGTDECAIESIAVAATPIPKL
# experimental.details: In vitro CatC cell activity experiment in U937 cell line
# Type: cell-based
# applied.conditions: U937 cells, CatC cell activity; read-out: Biological activity IC50
For each record, write down the corresponding IC50.
One number for each entry, in nM.

N#C[C@H](Cc1ccc2c(c1)CC(=O)N(c1ccc(F)cc1)C2)NC(=O)C1(N)CCCCC1 [Compound 58] ... 99.3
N#CC(Cc1ccc2c(c1)OCCc1cc(F)ccc1-2)NC(=O)C1(N)CCOCC1 (stereo not drawn) [Compound 36] ... 23.7
N#C[C@H](Cc1ccc2c(c1)CCc1ccccc1-2)NC(=O)[C@@H]1CNCCCO1 [Compound 8] ... 220
N#CC(Cc1ccc2c(c1)CCc1ccccc1-2)NC(=O)C1(N)CCOCC1 (stereo not drawn) [Compound 7] ... 10.2
N#CC(Cc1ccc2c(c1)COCc1cc(F)ccc1-2)NC(=O)C1(N)CCOCC1 (stereo not drawn) [Compound 37] ... 8.6
CN1Cc2cc(F)ccc2-c2ccc(C[C@@H](C#N)NC(=O)C3(N)CCOCC3)cc2C1=O [Compound 40] ... 10.3

Can you give me IC50 for all of these, one by one?
1. CN1Cc2cc(C#N)ccc2-c2cc(F)c(C[C@@H](C#N)NC(=O)[C@@H]3CNCCCO3)cc2C1=O [Compound 41]
2. N#Cc1ccc2c(c1)COc1cc(C[C@@H](C#N)NC(=O)[C@@H]3C[C@@H]4CCC[C@@H]4N3)c(F)cc1-2 [Compound 26]
3. N#CC(Cc1cc2c(cc1F)-c1ccc(S(=O)(=O)N3CCC3)cc1CO2)NC(=O)[C@@H]1CNCCCO1 (stereo partly drawn) [Compound 35]

Result:
[117, 6.7, 37.9]
